Reference source: patent US4530836A

- Tested on: pancreatic external secretion
- Measurement description: Acceleration of pancreatic external secretion (method of Dockray), i.v. in rats, compared with CCK-8
- Assay type: in vivo, rat
- Measurement conditions: male Wistar rats, 30 minutes after administration
Starred links: 1 amine or outer side, 2 acyl side, 3 side chain; linkers in the order of their positions; H or OH if unused. Non-standard residues stand in square brackets, D forms with d. Residues, ends and D or L forms follow the SMILES beside them. sY = N[C@@H](Cc1ccc(OS(=O)(=O)O)cc1)C(=O)O; Suc = O=C(CCC(=O)[*:2])[*:1]
Metric: Increased amount of the pancreatic juice secreted (in words)

INSERT INTO measurements (molecule, val) VALUES
  ('CSCC[C@H](NC(=O)[C@H](Cc1ccc(OS(=O)(=O)O)cc1)NC(=O)CCC(=O)O)C(=O)NCC(=O)N[C@@H](Cc1c[nH]c2ccccc12)C(=O)N[C@@H](CCSC)C(=O)N[C@@H](CC(=O)O)C(N)=O [Compound II, Suc-Tyr(SO3 H)-Met-Gly-Trp-Met-Asp-NH2] (Suc-[sY]MGWMD-NH2)', 'no active effect'),
  ('CSCC[C@H](NC(=O)[C@H](Cc1c[nH]c2ccccc12)NC(=O)CNC(=O)[C@H](CCSC)NC(=O)[C@H](Cc1ccc(OS(=O)(=O)O)cc1)NC(=O)CCC(=O)O)C(N)=O [Compound I, Suc-Tyr(SO3 H)-Met-Gly-Trp-Met-NH2] (Suc-[sY]MGWM-NH2)', 'no active effect');
